Overview of recorded melting point for various compounds
Express your answer in °C, writing the number without its unit.

compound	reported-endpoint	value-observed
CN(C)c1ccc(C#N)cc1	melting point	74
CCOc1cccc(F)c1	melting point	-27.5

We next turn to a different compound, shown below.
According to the records, this compound CC(O)CN (stereo not drawn) displays melting point of 25

----------
reported-endpoint: log10 vapour pressure (mmHg)
No unit in the answer, please; the number alone is enough.

Take a look at these entries with their results.
compound	log10 vapour pressure (mmHg)
CCOc1cc(C(C)(C)C)ccc1C1COC(c2c(F)cccc2F)=N1 (stereo not given)	-7.79
Clc1ccccc1-c1ccccc1Cl	-2.56

For this compound ( "FC(F)(F)C(F)(F)C(F)(F)C(F)(F)C(F)(F)C(F)(F)F" ), measured log10 vapour pressure (mmHg) is 2.34

// recorded log10 vapour pressure (mmHg) for "O=C(O)CC(O)(CC(=O)O)C(=O)O" : -7.78

Lab book: log10 vapour pressure (mmHg) of "Cc1ccccc1C(=O)O" noted as -3.18

Lab note: measured log10 vapour pressure (mmHg) of "ClC1CCCCC1" was 0.828

Consider "C[Si](C)(C)C" . Its measured log10 vapour pressure (mmHg) is 2.86

// log10 vapour pressure (mmHg) lookup, compound = "Oc1cc(Cl)c(Cl)cc1Cl" , result: -2.12

Entry under test: "CCCCCCCBr" . Its log10 vapour pressure (mmHg) was 0.105

Noted for CC(=O)OC(C)CC(C)C (stereo not given) : its log10 vapour pressure (mmHg) reads 0.602

# log10 vapour pressure (mmHg) of CC1CCCC1C (stereo not given) = 1.67

Record "CS(=O)(=O)O" . Reported log10 vapour pressure (mmHg): -3.37

"CC(C)=CCC/C(C)=C/CO" yielded log10 vapour pressure (mmHg) of -1.52

Sample "Clc1cccc(-c2ccccc2)c1" ; log10 vapour pressure (mmHg) observed: -2.13

Memo: "CCOP(=O)(OCC)OC(=CCl)c1ccc(Cl)cc1Cl" , reported log10 vapour pressure (mmHg): -5.12

Where do these numbers come from? They come from the OPERA property sets (Mansouri et al. 2018).
